-TΔS, one-site model for assorted molecules
Biological target: T1, BS69CC-MYND (BS69 amino acid 480–602, CC-MYND domain) (Homo sapiens, UniProt Q15326)
T1 construct: The BS69 CC-MYND domain (amino acids 480–602) was amplified from pCI-BS69; GST (N, cleaved yes); 6xHis (N, cleaved yes); made in house; host or cells: E. coli Rosetta 2 (DE3) pLysS
T1 sequence (Q15326 480-602): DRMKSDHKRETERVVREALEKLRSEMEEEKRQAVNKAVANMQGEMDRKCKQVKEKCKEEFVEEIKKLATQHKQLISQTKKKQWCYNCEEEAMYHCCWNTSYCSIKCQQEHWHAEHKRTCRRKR
Assay: Isothermal titration calorimetry (ITC) of EBNA2 peptides and polypeptides binding to BS69CC-MYND
Conditions: 25°C, pH 7.5, peptides 13 injections, polypeptides 19 injections, mean ± SD of 3 independent experiments
Excerpt: We hypothesised that the impaired gene activation and growth maintenance properties of type 2 EBNA2 may be the result of increased binding to BS69 as a result of the aspartate to serine amino acid difference adjacent to BS69 binding motif 2. […] We used isothermal titration calorimetry (ITC) to determine the affinity of peptide binding to the C-terminal region of BS69 (amino acid 480–602) comprising the CC-MYND domain that we expressed and purified from E.coli (Fig 1B and 1C). […]

molecule	-TΔS, one-site model [kcal/mol]
T2 EBNA2_348-422 m3 T1: T2 EBNA2_348-422 with motif 3 PTLEP replaced with the type 1 sequence PSIDP (protein, left off: His6, N-terminal, cleaved) SMPQLSPVVSLHQGQGPENSPTPGPSTAGPVCRVTPSATPDISPIHEPESSDSEEPPFLFPSDWYPPSIDPAELD	19.5
T2 EBNA2_348-412: type 2 EBNA2 polypeptide, amino acids 348–412, expressed and purified from E.coli (protein, left off: His6, N-terminal, cleaved, type 2 EBNA2 polypeptide, amino acids 348–412, expressed and purified from E.coli) SMPQLSPVVSLHQGQGPENSPTPGPSTAGPVCRVTPSATPDISPIHEPESSDSEEPPFLFPSDWY	14.4
T2 EBNA2_348-422 motif 3 mt: T2 EBNA2_348-422 with motif 3 mutated from PTLEP to ATAEA (protein, left off: His6, N-terminal, cleaved, T2 EBNA2_348-422 with motif 3 mutated from PTLEP to ATAEA) SMPQLSPVVSLHQGQGPENSPTPGPSTAGPVCRVTPSATPDISPIHEPESSDSEEPPFLFPSDWYPATAEAAELD	17.2
T2 EBNA2_348-422: type 2 EBNA2 polypeptide containing motif 1, 2 and 3, amino acids 348–422 (protein, left off: His6, N-terminal, cleaved) SMPQLSPVVSLHQGQGPENSPTPGPSTAGPVCRVTPSATPDISPIHEPESSDSEEPPFLFPSDWYPPTLEPAELD	45
